# METHOD NOTES: stability in 0.1M phosphate buffer via HPLC
# Format: physicochemical
# CONDITION SET: 0.1m phosphate buffer, pH 7.4
OBSERVABLE: half-life (h)
Output spec: scalar in h, unitless text.

What the record says about CO[C@H]1C[C@@H]2CC[C@@H](C)[C@@](O)(O2)C(=O)C(=O)N2CCCCC2(C)C(=O)O[C@H]([C@H](C)C[C@@H]2CC[C@@H](O)[C@H](OC)C2)CC(O)[C@H](C)/C=C(\C)[C@@H](O)[C@@H](OC)C(=O)[C@H](C)C[C@H](C)/C=C/C=C/C=C/1C (stereo partly shown) [22-methyl-27-hydroxyrapamycin, C-22-methyl-C-27-hydroxy-rapamycin] : half-life is 21.8

====

Reported pIC50 values are given for each entry in this list.
# Test system: lymphocyte proliferation (LAF); cells from the thymus of normal BALB/c mice
# METHOD NOTES: comitogen-induced thymocyte proliferation procedure (LAF)
# Type: cell-based
# CONDITION SET: BALB/c mouse thymocytes, PHA and IL-1, 72 hours, read-out: LAF IC50
Please express pIC50 as -log10 of the molar concentration.

[
  {
    "MOLECULE": "COC1CC2CCC(C)C(O)(O2)C(=O)C(=O)N2CCCCC2(C)C(=O)OC(C(C)CC2CCC(OC(=O)CN(C)C)C(OC)C2)CC(=O)C(C)C=C(C)C(O)C(OC)C(=O)C(C)CC(C)C=CC=CC=C1C (stereo not shown)",
    "OBSERVABLE": "pIC50",
    "RESULT VALUE": 7.70
  },
  {
    "MOLECULE": "CCC12CCCCN1C(=O)C(=O)[C@]1(O)O[C@@H](CC[C@H]1C)C[C@H](OC)/C(C)=C/C=C/C=C/[C@@H](C)C[C@@H](C)C(=O)[C@H](OC)[C@H](O)/C(C)=C/[C@@H](C)C(=O)C[C@@H]([C@H](C)C[C@@H]1CC[C@@H](O)[C@H](OC)C1)OC2=O (stereo partly shown)",
    "OBSERVABLE": "pIC50",
    "RESULT VALUE": 6.85
  },
  {
    "MOLECULE": "CO[C@H]1C[C@@H]2CC[C@@H](C)[C@@](O)(O2)C(=O)C(=O)N2CCCCC2(C)C(=O)O[C@H]([C@H](C)C[C@@H]2CC[C@@H](O)[C@H](OC)C2)CC(=O)[C@H](C)/C=C(\\C)[C@@H](O)[C@@H](OC)C(=O)[C@H](C)C[C@H](C)/C=C/C=C/C=C/1C (stereo partly shown)",
    "OBSERVABLE": "pIC50",
    "RESULT VALUE": 7.63
  }
]

Kindly review the next molecule as well.
Reported pIC50 of CO[C@H]1C[C@@H]2CC[C@@H](C)[C@@](O)(O2)C(=O)C(=O)N2CCCCC2(C)C(=O)O[C@H]([C@H](C)C[C@@H]2CC[C@@H](O)[C@H](OC)C2)CC(O)[C@H](C)/C=C(\C)[C@@H](O)[C@@H](OC)C(=O)[C@H](C)C[C@H](C)/C=C/C=C/C=C/1C (stereo partly shown) [22-methyl-27-hydroxyrapamycin, C-22-methyl-C-27-hydroxy-rapamycin] : 8.00

====

# METHOD NOTES: stability in 0.1M phosphate buffer via HPLC
# Assay type: physicochemical
# CONDITION SET: 0.1m phosphate buffer; pH 7.4 buffer, 0.1M phosphate, 37° C.; read-out: Stability (converted)
# Description: In addition, the stability of representative compounds was tested, via HPLC, in 0.1M phosphate buffer (pH 7.4, 37° C.).
OBSERVABLE: half-life (h)
Respond with the bare value in h.

response.value for COC1CC2CCC(C)C(O)(O2)C(=O)C(=O)N2CCCCC2(C)C(=O)OC(C(C)CC2CCC(OC(=O)CN(C)C)C(OC)C2)CC(=O)C(C)C=C(C)C(O)C(OC)C(=O)C(C)CC(C)C=CC=CC=C1C (centres unmarked) (field: half-life) = 13.5

All figures here come from patent US5387680A.
